Measured values drawn from PubChem BioAssay (NCI) for this set.

Tested on: SK-MEL-5 melanoma
Experiment: NCI tumour cell line growth inhibition, 48 h
measureName: TGI

molecule="COC(=O)C(=O)C(C(=O)OC)C(=O)C(=O)Nc1c(C)cccc1C (stereo not given)" result="> 100 µM"
molecule=O=C1[C@@H]2C(c3ccc(Br)cc3)=NO[C@@H]2C(=O)N1c1ccc(Cc2ccc(N3C(=O)[C@H]4C(c5ccc(Br)cc5)=NO[C@H]4C3=O)cc2)cc1 result="> 3.48 µM"
molecule=CO/C(N)=C(\C#N)N=Cc1ccc2ccccc2c1 result="> 100 µM"
molecule="CCNC(=O)C(C)C1CCC2(C)C=CC(=O)C(C)=C2C1O (stereo not given)" result="> 100 µM"
molecule="CSc1ncnc2c1cnn2Cc1cnnn1COCC(O)CO (stereo not given)" result="> 100 µM"
molecule=O=c1[nH]/c(=C/c2ccc3c(c2)OCO3)c(=O)[nH]/c1=C/c1ccc2c(c1)OCO2 result="> 10 µM"
molecule=NS(=O)(=O)c1ccc(NC(=O)N/N=C/c2ccccc2O)cc1 result="> 100 µM"
molecule=COC(=O)C(=O)Cc1nc2ccccc2s1 result="> 100 µM"
molecule=OCC#CCNCl result="> 100 µM"
molecule="O=C(Cc1ccccc1)NN1C(=O)C(Cl)C1c1ccccc1Cl (stereo not given)" result="> 100 µM"

GET /values?readout=TGI&item= Cc1cc2ncn(-c3nc4ccccc4nc3C(C#N)S(C)(=O)=O)c2cc1C (stereo not given)
> 100 µM

GET /values?readout=TGI&item= COc1cc2ccc3c4ccccc4cnc3c2cc1OC
> 100 µM

* * *

System: BT-549 breast
Assay: NCI tumour cell line growth inhibition, 48 h
Below, each entry is listed with its recorded TGI.
Provide only the numeric value, understood in µM.

linenotation=Cn1cc(/C=C\[N+](=O)[O-])c2ccccc21 unitslabel=µM numericvalue=78.5
linenotation=C=C1C(=O)O[C@H]2[C@H]1CC/C(COC(=O)c1cc(OC)c(OC)c(OC)c1)=C\CC[C@@]1(C)O[C@@H]21 unitslabel=µM numericvalue=2.35
linenotation=CCOC(=O)CSc1cc(Cl)c(C)cc1S(=O)(=O)/N=C(/N=C/c1ccc([N+](=O)[O-])s1)NNC unitslabel=µM numericvalue=46.3
linenotation=COc1cnc2c(c1)C(=O)c1c-2n(CCCNC2=NCCS2)c(=O)c2cc(F)ccc12 unitslabel=µM numericvalue=17.5
linenotation=O=[N+]([O-])c1ccc(SN=S=NSc2cccc(SN=S=NSc3ccc([N+](=O)[O-])cc3)c2)cc1 unitslabel=µM numericvalue=40.6

GET /values?readout=TGI&item= CCN1CCN(c2nc(C)cc(N(CCCNc3ccnc4cc(Cl)ccc34)Cc3ccc4c(c3)OCO4)n2)CC1
3.7

GET /values?readout=TGI&item= COc1cc(-c2cc(/C=C/C(=O)c3ccc(F)c(F)c3)[nH]n2)cc(OC)c1OC
19.3

GET /values?readout=TGI&item= COc1cc(CNCCCCCCN2C(=O)c3cccc4cccc(c34)C2=O)ccc1O
27.9

* * *

Test system: HT29 colon
Experiment: NCI tumour cell line growth inhibition, 48 h
measureName: TGI

molecule="NC1NC=NC2C1N=CN2C1OC(CO)C2[O][Sn][O]C21 (stereo not given)" result="> 100 µM"
molecule=CCOc1ccccc1N=Nc1ccc2oc(=O)c(C(C)=O)cc2c1 result="> 100 µM"
molecule="O=C1C(Cl)N(c2c(Cl)cccc2Cl)C1c1c[nH]c2ccccc12 (stereo not given)" result="> 100 µM"
molecule=O=C1[C@@H]2C(c3ccc(Br)cc3)=NO[C@@H]2C(=O)N1c1ccc(Cc2ccc(N3C(=O)[C@H]4C(c5ccc(Br)cc5)=NO[C@H]4C3=O)cc2)cc1 result="> 40 µM"
molecule="CCNC(=O)C(C)C1CCC2(C)C=CC(=O)C(C)=C2C1O (stereo not given)" result="> 100 µM"

GET /values?readout=TGI&item= CO[C@H]1C[C@@H]2CC[C@@H](C)[C@@](O)(O2)C(=O)C(=O)N2CCCC[C@H]2C(=O)O[C@H]([C@H](C)C[C@@H]2CC[C@@H](OC(=O)C(C)(CO)CO)[C@H](OC)C2)CC(=O)[C@H](C)/C=C(\C)[C@@H](O)[C@@H](OC)C(=O)[C@H](C)C[C@H](C)\C=C/C=C/C=C/1C
> 10 µM

* * *

Below, each entry is listed with its recorded TGI.
Tested on: TK-10 renal
Assay: NCI tumour cell line growth inhibition, 48 h

Record excerpt, results attached:
molecule=CCOC(=O)Cc1cc(OC)c(OC)cc1/C(Cl)=C(\CO)c1ccc(OC)c(OC)c1 measurename=TGI result="> 100 µM"
molecule="OCC1O[C@H](O[C@@H]2CCCN3CC(O)C(O)[C@@H]23)C(O)C(O)C1O (some centres not stated)" measurename=TGI result="> 100 µM"
molecule="CSc1ncnc2c1cnn2Cc1cnnn1COCC(O)CO (configuration not stated)" measurename=TGI result="> 100 µM"
molecule="CC1CC2C3CCC4=CC(=O)C=CC4(C)C3(F)C(O)CC2(C)C1(O)C(=O)COP(=O)(O)O (configuration not stated)" measurename=TGI result="> 500 µM"
molecule="Cc1ccc(S(=O)c2cccs2)cc1 (configuration not stated)" measurename=TGI result="> 100 µM"

Query for TK-10 renal: what TGI does the record show for O=C1Oc2ccccc2C1C/C(=N\Nc1ccccc1)c1ccccc1O (configuration not stated) ?
> 100 µM

Query for TK-10 renal: what TGI does the record show for COc1cc(/C=C/C(=O)c2cccc(-n3cc(-c4cc(OC)c(OC)c(OC)c4)[nH]c3=O)c2)cc(OC)c1OC ?
6.68 µM

Query for TK-10 renal: what TGI does the record show for COc1cccc(/C=C/C(=O)c2ccc3cc(OC)ccc3c2)c1 ?
46.4 µM

Query for TK-10 renal: what TGI does the record show for CC(C)c1cccc(C(C)C)c1NC(=O)C(=O)Cc1nc2ccc([N+](=O)[O-])cc2[nH]c1=O ?
> 100 µM

Query for TK-10 renal: what TGI does the record show for COc1ccc(/C=c2\c(=O)[nH]c3nc4ccccc4c(=O)n23)cc1 ?
> 100 µM

Query for TK-10 renal: what TGI does the record show for O=C1OC(c2ccccc2)=NC1c1ccccc1 (configuration not stated) ?
> 100 µM

Query for TK-10 renal: what TGI does the record show for CC(=O)Nc1[nH]n(C)c(=O)c1-c1nnc(C)s1 ?
> 100 µM

Query for TK-10 renal: what TGI does the record show for CCOC(=O)C(C)(NC(=O)c1ccc(NCc2ccc3nc(NC(=O)c4ccccc4)nc(NC(=O)c4ccccc4)c3c2)cc1)C(=O)OCC ?
48.9 µM

* * *

Tested on: LOX IMVI melanoma
Assay: NCI tumour cell line growth inhibition, 48 h
Below, each entry is listed with its recorded TGI.

GET /values?readout=TGI&item= CC(C)Oc1c(C2(c3ccccc3)SCCCS2)c(=O)c1=O
> 100 µM

* * *

Below, each entry is listed with its recorded TGI.
Test system: HOP-92 NSCLC
Experiment: NCI tumour cell line growth inhibition, 48 h

molecule=COc1cccc2c1-c1nc(N)c3c(OC)cccc3c1C2=O measurename=TGI result="> 100 µM"
molecule="Cc1ccc(C(=O)CC2(O)C(=O)Nc3c(C)cc(Cl)cc32)cc1 (configuration not stated)" measurename=TGI result="> 100 µM"
molecule=O=C(CNc1ccccn1)Nn1cnc2ccc(S(=O)(=O)Nc3ccccn3)cc2c1=O measurename=TGI result="> 100 µM"
molecule="O=C1CC2OCC=C3CN4CCC56c7ccccc7N1C5C2C3CC46O (configuration not stated)" measurename=TGI result="> 100 µM"

GET /values?readout=TGI&item= Cn1cc(/C=C\[N+](=O)[O-])c2ccccc21
> 100 µM

GET /values?readout=TGI&item= COc1cc2c(c(OC)c1OC)-c1ccc(NN(C(=O)c3ccccc3)C(=O)c3ccccc3)c(=O)cc1[C@@H](NC(C)=O)CC2 (tested in a mixture with another compound)
> 100 µM

GET /values?readout=TGI&item= Cn1c(CBr)nc2c1C(=O)c1nc(CBr)[nH]c(=O)c1C2=O
> 100 µM

GET /values?readout=TGI&item= OCC#CCNCl
> 100 µM

GET /values?readout=TGI&item= Oc1ccc(Cl)cc1C(c1cc(Cl)ccc1O)C(Cl)(Cl)Cl
5.44 µM

GET /values?readout=TGI&item= O=C1[C@@H]2C(c3ccc(Br)cc3)=NO[C@@H]2C(=O)N1c1ccc(Cc2ccc(N3C(=O)[C@H]4C(c5ccc(Br)cc5)=NO[C@H]4C3=O)cc2)cc1
> 40 µM

GET /values?readout=TGI&item= COc1cc2oc(-c3cccc(C(=O)Nc4ccc(Cl)cc4)c3)cc(=O)c2c(OC)c1OC
5.58 µM

* * *

Tested on: MALME-3M melanoma
Experiment: NCI tumour cell line growth inhibition, 48 h
Below, each entry is listed with its recorded GI50.

Record excerpt, results attached:
compound="CSC1=NC(=Nc2c(C)cccc2C)C2(CCC(C(C)(C)C)CC2)N1c1ccc(Cl)cc1 (stereo unspecified)" result="42.6 µM"
compound=COc1cc2cc(Oc3ccc(NC(=O)Nc4cc(C(F)(F)F)cc(C(F)(F)F)c4)cc3)c(C)nc2cc1OCCN1CCOCC1 result="1.2 µM"
compound=COc1cc(-c2cc(/C=C/C(=O)c3ccc(F)c(F)c3)[nH]n2)cc(OC)c1OC result="2.96 µM"

GET /values?readout=GI50&item= CSc1ccc(C2=C(c3ccccc3)C(=O)OC2)cc1
3.29 µM

GET /values?readout=GI50&item= CC1CC2C3CCC4=CC(=O)C=CC4(C)C3(F)C(O)CC2(C)C1(O)C(=O)COP(=O)(O)O (stereo unspecified)
> 500 µM

GET /values?readout=GI50&item= CCOC(=O)CSc1cc(Cl)c(C)cc1S(=O)(=O)/N=C(/N=C/c1ccc([N+](=O)[O-])s1)NNC
19.9 µM
